biological target: Gag-Pol polyprotein (Human immunodeficiency virus type 1 group M subtype B (isolate HXB2)); experiment: RNase H inhibition, HIV 1 Gag Pol polyprotein, FRET biochemical assay, screening (AID 372); conditions: HIV-1 RT RNase H, FRET RNA/DNA substrate fluorescence; at 10 µM
Screen size: about 100,000 compounds; about 770 (0.77%) were called active. Rule as the data show it: active = inhibition above about 50%; inactive = the rest. For the sample, actives were picked, then their nearest neighbours and some compounds at random.
Entry note: the call must match one of yes (1) = active, no (0) = inactive

See these solved cases before continuing.
[[record]]
molecule = "O=C(CSc1ccccc1)N/N=C/c1ccccc1O"
subject_of_test = "Gag-Pol polyprotein (Human immunodeficiency virus type 1 group M subtype B (isolate HXB2))"
class_name = "no (0)"

[[record]]
molecule = "COC(=O)C1=C(C(=O)OC)SC2(S1)C(C(=O)OC)=C(C(=O)OC)SC1=C2c2ccccc2N(C)C1(C)C"
subject_of_test = "Gag-Pol polyprotein (Human immunodeficiency virus type 1 group M subtype B (isolate HXB2))"
class_name = "no (0)"

[[record]]
molecule = "CC(=O)n1ccc(C(=O)Nc2ccc(Cl)c(Cl)c2)n1"
subject_of_test = "Gag-Pol polyprotein (Human immunodeficiency virus type 1 group M subtype B (isolate HXB2))"
class_name = "no (0)"

[[record]]
molecule = "Nc1ccc(S(=O)(=O)O)c2cccc(S(=O)(=O)O)c12"
subject_of_test = "Gag-Pol polyprotein (Human immunodeficiency virus type 1 group M subtype B (isolate HXB2))"
class_name = "no (0)"

[[record]]
molecule = "COc1ccccc1NC(=O)c1ccc(CN(c2ccccc2)S(C)(=O)=O)cc1"
subject_of_test = "Gag-Pol polyprotein (Human immunodeficiency virus type 1 group M subtype B (isolate HXB2))"
class_name = "no (0)"


I'd appreciate the recorded outcome for CC(C)C(NC(=O)CN(c1ccccc1F)S(C)(=O)=O)C(C)C from this test.
no (0)

I'd appreciate the recorded outcome for CCOC(=O)C1=C(C)N=c2s/c(=C/c3ccc(-c4cccc(C(F)(F)F)c4)o3)c(=O)n2C1c1cccs1 (stereo unspecified) from this test.
no (0)

I'd appreciate the recorded outcome for COC(=O)C1=C(C(=O)OC)SC2(S1)C(C(=O)OC)=C(C(=O)OC)SC1=C2c2cccc(C)c2NC1(C)C from this test.
no (0)

I'd appreciate the recorded outcome for Cc1ccccc1Nc1ncc(-c2ccc3ccccc3c2)s1 from this test.
no (0)

I'd appreciate the recorded outcome for CS(=O)(=O)N(Cc1ccc(Cl)cc1)c1ccc(C(=O)N2CCOCC2)cc1 from this test.
no (0)

I'd appreciate the recorded outcome for CCOC(=O)c1cccc(Nc2ncnc3ccc(C)cc23)c1 from this test.
no (0)

###

target: Gag-Pol polyprotein (Human immunodeficiency virus type 1 group M subtype B (isolate HXB2)); assay: RNase H inhibition, HIV 1 Gag Pol polyprotein, FRET biochemical assay, screening (AID 372); details: HIV-1 RT RNase H, FRET RNA/DNA substrate fluorescence; at 10 µM; hits give high values
The whole screen tested about 100,000 compounds, of which about 770 (0.77%) were called active. This excerpt belongs to a sample that is enriched for actives.
Outcome: Criterion met for inhibition of at least 10%; Criterion not met for anything lower.

See these solved cases before continuing.
[[record]]
compound = "CC(c1ccccc1)C1CC(=O)N(c2ccc(I)cc2)C1=O (stereo not drawn)"
class_name = "Criterion met"

[[record]]
compound = "CCOC(=O)C1=C(C)N=c2s/c(=C\\c3ccc(-c4ccc(C)c([N+](=O)[O-])c4)o3)c(=O)n2C1c1ccc(OC)c(OC)c1 (stereo not drawn)"
class_name = "Criterion met"

[[record]]
compound = "Cc1ccc(-c2n[nH]c(=S)n2/N=C/c2cc(Br)ccc2O)cc1"
class_name = "Criterion met"


Check the entry O=C(N/N=C/c1cccc(/C=N/NC(=O)c2cccnc2)c1)c1cccnc1 : does inhibition equal or exceed 10%?
Criterion not met

Check the entry Cc1cccc(N2C(=O)NC(=O)/C(=C/c3cccn3-c3ccc([N+](=O)[O-])cc3)C2=O)c1 : does inhibition equal or exceed 10%?
Criterion met
